target-entity: hpol κ^19–526 (Homo sapiens)
Format: binding
study-conditions: read-out: Kd,DNA (polymerase binding to primer-template DNA); 150 μM MK886

- compound: "CC(C)c1ccc2c(c1)c(SC(C)(C)C)c(CC(C)(C)C(=O)O)n2Cc1ccc(Cl)cc1 [MK886]"
  Kd: "70.4 nM"

* * *

target-entity: hpol κ^19–526 (Homo sapiens)
Sequence (Q9UBT6 19-526): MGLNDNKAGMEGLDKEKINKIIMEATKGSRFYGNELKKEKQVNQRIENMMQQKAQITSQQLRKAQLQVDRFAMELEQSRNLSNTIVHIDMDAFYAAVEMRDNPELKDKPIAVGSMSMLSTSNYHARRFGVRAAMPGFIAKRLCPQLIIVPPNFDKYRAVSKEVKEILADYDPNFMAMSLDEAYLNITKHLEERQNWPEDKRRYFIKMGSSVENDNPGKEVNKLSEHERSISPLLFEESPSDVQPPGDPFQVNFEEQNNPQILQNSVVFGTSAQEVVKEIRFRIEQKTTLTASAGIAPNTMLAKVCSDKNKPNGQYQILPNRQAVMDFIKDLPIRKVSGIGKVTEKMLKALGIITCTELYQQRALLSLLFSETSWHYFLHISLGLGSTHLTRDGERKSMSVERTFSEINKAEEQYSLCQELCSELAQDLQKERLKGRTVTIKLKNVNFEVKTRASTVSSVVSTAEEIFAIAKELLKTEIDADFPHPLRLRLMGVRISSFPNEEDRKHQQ
Type: binding
study-conditions: read-out: Kd,DNA (polymerase binding to primer-template DNA); 50 μM MK886
pKd: −log10 of the molar value.

- smiles: "CC(C)c1ccc2c(c1)c(SC(C)(C)C)c(CC(C)(C)C(=O)O)n2Cc1ccc(Cl)cc1"
  target-entity: "hpol κ^19–526 (Homo sapiens)"
  pKd: 7.62
